- System: SW-620
- protocolNotes: Cytotoxicity against human SW620 cells after 72 hrs by MTT assay
- Assay type: functional, cell-based
- testParameters: SW-620, 72 h
pIC50: −log10 of the molar value.
metricName: pIC50

>>> df
                                 itemsmiles  comparisonoperator  reportedvalue
0  COc1cccc(/C=C2\CCC/C(=C\c3ccc(Cl)c(Cl)c3)C2=O)c1OC                   =           5.00
1  COc1cccc(/C=C2\CCC/C(=C\c3cc(OC)c(OC)c(OC)c3)C2=O)c1OC                   =           5.60
2  COc1cccc(/C=C2\CCC/C(=C\c3cccc(Br)c3)C2=O)c1OC                   =           5.06
3  COc1ccc(/C=C2\CCC/C(=C\c3ccc(Br)cc3)C2=O)cc1OC                   =           5.28
4  COc1cccc(/C=C2\CCC/C(=C\c3ccc(O)c(O)c3)C2=O)c1OC                   =           5.20
5  COc1ccc(/C=C2\CCC/C(=C\c3ccc(Cl)c(Cl)c3)C2=O)cc1OC                   =           5.40
6  COc1cccc(/C=C2\CCC/C(=C\c3cccc(OC)c3OC)C2=O)c1                   =           5.15
7  COc1cccc(/C=C2\CCC/C(=C\c3cccc(OC)c3OC)C2=O)c1OC                   =           5.08
8  COc1cc(/C=C2\CCC/C(=C\c3ccc(OC)c(OC)c3)C2=O)cc(OC)c1                   =           5.60
9  COc1ccc(/C=C2\CCC/C(=C\c3cccc(OC)c3OC)C2=O)c(OC)c1                   <           4.70

---

- System: A549
- protocolNotes: Cytotoxicity against human A549 cells after 72 hrs by MTT assay
- Type: functional, cell-based
- testParameters: A549, 72 h
pIC50: −log10 of the molar value.
metricName: pIC50

In [3]: df
Out[3]:
                                 itemsmiles  comparisonoperator  reportedvalue
0  COc1cccc(/C=C2\CCC/C(=C\c3cc(OC)c(OC)c(OC)c3)C2=O)c1OC                   =           5.23
1  COc1ccc(/C=C2\CCC/C(=C\c3ccc(OC)c(OC)c3)C2=O)c(OC)c1                   <           4.70
2  COc1ccc(/C=C2\CCC/C(=C\c3ccccc3Br)C2=O)cc1OC                   <           4.70
3  COc1ccc(/C=C2\CCC/C(=C\c3ccc(Br)cc3)C2=O)cc1OC                   =           4.80
4  COc1cccc(/C=C2\CCC/C(=C\c3cccc(OC)c3OC)C2=O)c1OC                   =           4.94
5  COc1cccc(/C=C2\CCC/C(=C\c3ccc(OC)c(OC)c3)C2=O)c1                   =           5.17
6  COc1ccc(/C=C2\CCC/C(=C\c3ccc(O)cc3)C2=O)cc1OC                   <           4.70
7  COc1cccc(/C=C2\CCC/C(=C\c3ccc(Cl)cc3)C2=O)c1OC                   <           4.70
8  COc1ccc(/C=C2\CCC/C(=C\c3cc(OC)c(OC)c(OC)c3)C2=O)cc1OC                   =           5.54
9  COc1cccc(/C=C2\CCC/C(=C\c3ccc(O)c(Cl)c3)C2=O)c1OC                   <           4.70
